B1: tRNA (parent)
chain: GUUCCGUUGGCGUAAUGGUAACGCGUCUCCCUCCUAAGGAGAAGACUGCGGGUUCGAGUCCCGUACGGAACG

Variants of: B1
Experiment: yeast fitness relative to wild type (ratio to wild type); higher = fitter; tRNA-Arg(CCU), competitive growth, 37 C, YPD
This sample holds only a part of the variants without activity.
ENDPOINT LABEL: yeast fitness

* G9A A21G A40G A43C U54A | ≤ 0.5
* C5U C22G C27G C29G C49U | ≤ 0.5
* C5G U8G C11G | 0.509
* G12A A14G C30G A70U | 0.616
* C30A A40G U59G A70C | ≤ 0.5
* U16A G17A C34U C66U A70U | ≤ 0.5
* G12C C29G G48C | ≤ 0.5
* C4U A15C C29G C30G A43C | ≤ 0.5
* G9A G10A A21G G56A A65U | ≤ 0.5
* U26C C27G A40C C66U | ≤ 0.5
* C4A C5A C29U G51C | ≤ 0.5
* G48C G52C A57C G58A | ≤ 0.5
* U26C G39A U59A C60G C62U | ≤ 0.5
* G18U A45U U59C | 0.542
* U35C A36G | 0.931
* C24A A36U C55A | ≤ 0.5
* C5U G50A G63A | 0.608
* C5U A14U G41C | ≤ 0.5
* U3C C11G C24G U54G | ≤ 0.5
* U2G C29G U47C | 0.557
* G17A C22A A36G A45C C46U | ≤ 0.5
* U7A U19G A21U G67A | ≤ 0.5
* C4G U32G C33U A37U A65G | ≤ 0.5
* G10A A37U G67C | 0.587
* U32C C55A | 0.632
* C11G A21G C34G A40C | ≤ 0.5
* U2A U28C G39A G68A | ≤ 0.5
* G58A A69G | 1.15
* A21G A36G A65C | 0.664
* G38A A43U U54A | ≤ 0.5
* C34U A43G | 0.789
* C4G C27U G41C U64A G67A | ≤ 0.5
* C5A U7C U19A G38C A42G | ≤ 0.5
* G41C U64G | 0.735
* G44A G63A | 0.97
* C4A A15G C33G C60A | ≤ 0.5
* G10A A36C A70U | ≤ 0.5
* C34G G56A | 0.639
* U2G A20U G25C C49G | ≤ 0.5
* C24U U35C G38C C62U A69G | 0.723
* C4A U32C U59G | ≤ 0.5
* A21C A40U | 0.807
* U47C G67C | 0.886
* U3A A14C | 0.567
* U3A C11A C33U A70C | ≤ 0.5
* G18A G68C A69U | ≤ 0.5
